Sourced from the RNAGym collection of RNA variant scans (doi:10.7554/elife.80360)

B1: HDV Ribozyme (parent)
chain: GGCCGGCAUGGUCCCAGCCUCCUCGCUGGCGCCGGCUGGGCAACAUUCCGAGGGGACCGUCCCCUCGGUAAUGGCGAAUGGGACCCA

variants of: B1; assay: self-cleavage, relative activity (ratio to wild type); higher = more cleavage; co-transcriptional
self-cleavage below 0.3 gives NOT MET; self-cleavage at or above it gives MET.

The following variants have reported results that may help.
ALTERATION	CLASS
G39U G82A	NOT MET
C14U G29C	NOT MET
C14A G55U	MET

Hi team, for C66A A71C , is the recorded self-cleavage at or above 0.3?
MET

Field entry: C62U C63G
MET

Field entry: C13U U46A
NOT MET

Field entry: C63G G82U
NOT MET

Field entry: G52A C75U
NOT MET
